assay: Oral pharmacokinetic study in male rats (oral gavage); format: in vivo, rat; conditions: male, CD, rat, in vivo, po, 10 mg/kg, 10 mg/kg (free base equivalents), 0.5% CMC
measured parameter: Cmax (ng/mL)
Answers are plain numbers, in ng/mL.

Report Cmax for Cc1c(CN(C)C(=O)/C=C/c2cnc3c(c2)CCC(=O)N3)oc2ccccc12.Cc1ccc(S(=O)(=O)O)cc1.O [Tosylate monohydrate milled]
347

---

experiment: Pharmacokinetic study in male rats, single oral dose in 80% PEG400; settings: male, rat, in vivo, po, 30 mg/kg, single oral dose 30 mg/kg in 80% PEG400, particle state Milled
measured parameter: AUC(0-t) (ng·h/mL)
Numbers only, in ng·h/mL.

Some compounds with known AUC(0-t) results, for comparison:
CS(=O)(=O)O.Cc1c(CN(C)C(=O)/C=C/c2cnc3c(c2)CCC(=O)N3)oc2ccccc12 [Mesylate] = 5770
Cc1c(CN(C)C(=O)/C=C/c2cnc3c(c2)CCC(=O)N3)oc2ccccc12.Cc1ccc(S(=O)(=O)O)cc1 [Tosylate] = 9460

Provide one value: measured AUC(0-t) of Cc1c(CN(C)C(=O)/C=C/c2cnc3c(c2)CCC(=O)N3)oc2ccccc12 [Free base]
6370

---

assay: Oral pharmacokinetic study in male rats (oral gavage); assay type: in vivo, rat; settings: male, CD, rat, plasma, po, 10 mg/kg, 10 mg/kg (free base equivalents), 0.5% CMC
measured parameter: Cmax (ng/mL)
Answers are plain numbers, in ng/mL.

// Input: Cc1c(CN(C)C(=O)/C=C/c2cnc3c(c2)CCC(=O)N3)oc2ccccc12 [Free base] . Output its Cmax only.
163

---

experiment: Oral pharmacokinetic study in male rats (oral gavage); assay type: in vivo, rat; details: male, CD, rat, plasma, po, 10 mg/kg, 10 mg/kg (free base equivalents), 1% Poloxamer 407
measured parameter: AUC(0-t)

Give reported AUC(0-t) value for Cc1c(CN(C)C(=O)/C=C/c2cnc3c(c2)CCC(=O)N3)oc2ccccc12 [Free base]
883 ng·h/mL

---

assay: Oral pharmacokinetic study in male rats (oral gavage); assay type: in vivo, rat; details: male, CD, rat, in vivo, po, 10 mg/kg, 10 mg/kg (free base equivalents), 1% Poloxamer 407
measured parameter: Cmax (ng/mL)
Answers are plain numbers, in ng/mL.

Respond only with Cmax recorded for Cc1c(CN(C)C(=O)/C=C/c2cnc3c(c2)CCC(=O)N3)oc2ccccc12.Cc1ccc(S(=O)(=O)O)cc1.O [Tosylate monohydrate milled]
348

---

test: Oral pharmacokinetic study in male rats (oral gavage); assay type: in vivo, rat; settings: male, CD, rat, in vivo, po, 30 mg/kg, 30 mg/kg (free base equivalents), 0.5% CMC
measured parameter: AUC(0-t) (ng·h/mL)
One number for each entry, in ng·h/mL.

Specify AUC(0-t) for Cc1c(CN(C)C(=O)/C=C/c2cnc3c(c2)CCC(=O)N3)oc2ccccc12.Cc1ccc(S(=O)(=O)O)cc1.O [Tosylate monohydrate milled] and stop.
3680

---

assay: Oral pharmacokinetic study in male rats (oral gavage); format: in vivo, rat; conditions: male, CD, rat, in vivo, po, 30 mg/kg, 30 mg/kg (free base equivalents), 0.5% CMC
measured parameter: Cmax (ng/mL)
Numbers only, in ng/mL.

Identify Cmax associated with the compound Cc1c(CN(C)C(=O)/C=C/c2cnc3c(c2)CCC(=O)N3)oc2ccccc12.Cc1ccc(S(=O)(=O)O)cc1.O [Tosylate monohydrate milled]
434
